- testedOn: Adrenergic receptor alpha-1 (Rattus norvegicus, UniProt P15823+P23944+P43140)
- method: Ability to block alpha-1 adrenergic receptor-mediated contractions of rat aorta.
- Assay type: functional
testReadout: pA2
Kindly provide the number alone.

The cases that follow already have their pA2 on record.
- smilesData: "CN1CC(COC(=O)C2CCCCC2)=C[C@@H]2c3cccc4[nH]cc(c34)C[C@H]21.O=C(O)/C=C\\C(=O)O"
  testReadout: "pA2"
  reportedResult: 5.89
- smilesData: "CC(C)n1cc2c3c(cccc31)C1=C[C@@H](COC(=O)C3CC3)CN(C)[C@@H]1C2.O=C(O)/C=C\\C(=O)O"
  testReadout: "pA2"
  reportedResult: 5.08
- smilesData: "CN1C[C@H](COC(=O)C2CC2)C=C2c3cccc4[nH]cc(c34)C[C@H]21.O=C(O)/C=C\\C(=O)O"
  testReadout: "pA2"
  reportedResult: 6.66

The reported pA2 value, Adrenergic receptor alpha-1 (Rattus norvegicus, UniProt P15823+P23944+P43140), for CC(C)n1cc2c3c(cccc31)[C@H]1C[C@@H](COC(=O)C3CCCCC3)CN(C)[C@@H]1C2.O=C(O)/C=C\C(=O)O reads 4.59

The reported pA2 value, Adrenergic receptor alpha-1 (Rattus norvegicus, UniProt P15823+P23944+P43140), for CC(C)n1cc2c3c(cccc31)[C@H]1C[C@@H](COC(=O)C3CC3)CN(C)[C@@H]1C2.O=C(O)/C=C\C(=O)O reads 5.55

The reported pA2 value, Adrenergic receptor alpha-1 (Rattus norvegicus, UniProt P15823+P23944+P43140), for CO[C@H]1CC[C@H](C(=O)OCC2=C[C@@H]3c4cccc5[nH]cc(c45)C[C@H]3N(C)C2)CC1.O=C(O)/C=C\C(=O)O reads 6

The reported pA2 value, Adrenergic receptor alpha-1 (Rattus norvegicus, UniProt P15823+P23944+P43140), for CC(C)n1cc2c3c(cccc31)C1=C[C@@H](COC(=O)C3CCCCCC3)CN(C)[C@@H]1C2.O=C(O)/C=C\C(=O)O reads 4.93

====

# pKp listing for each entry below
- testedOn: UniProt P14842
- method: Effectiveness in blocking 5-HT2A receptor-mediated contractions of rat tail artery
- Type: functional, tissue-based
Kindly provide the number alone.

The cases that follow already have their pKp on record.
- smilesData: "CN1C[C@H](CO)C=C2c3cccc4[nH]cc(c34)C[C@H]21"
  testedOn: "UniProt P14842"
  reportedResult: 6.88
- smilesData: "CN1C[C@H](COC(=O)C2CCCCCC2)C[C@@H]2c3cccc4[nH]cc(c34)C[C@H]21.O=C(O)/C=C\\C(=O)O"
  testedOn: "UniProt P14842"
  reportedResult: 7.1
- smilesData: "CN1C[C@H](COC(=O)C2CCCC2)C[C@@H]2c3cccc4[nH]cc(c34)C[C@H]21.O=C(O)/C=C\\C(=O)O"
  testedOn: "UniProt P14842"
  reportedResult: 7.5
- smilesData: "CN1C[C@H](COC(=O)C2CCCCC2)C=C2c3cccc4[nH]cc(c34)C[C@H]21.O=C(O)/C=C\\C(=O)O"
  testedOn: "UniProt P14842"
  reportedResult: 6.92

Summary for this compound, CN1C[C@H](COC(=O)C2CC2)C[C@@H]2c3cccc4[nH]cc(c34)C[C@H]21.O=C(O)/C=C\C(=O)O : pKp is 7.67

Summary for this compound, CN1C[C@H](COC(=O)C2CCC2)C[C@@H]2c3cccc4[nH]cc(c34)C[C@H]21.O=C(O)/C=C\C(=O)O : pKp is 7.3

Summary for this compound, CN1C[C@H](COC(=O)C2CCCCC2)C[C@@H]2c3cccc4[nH]cc(c34)C[C@H]21.O=C(O)/C=C\C(=O)O : pKp is 7.34

====

- testedOn: 5-hydroxytryptamine receptor 2A (Rattus norvegicus, UniProt P14842)
- Sequence (P14842 whole entry): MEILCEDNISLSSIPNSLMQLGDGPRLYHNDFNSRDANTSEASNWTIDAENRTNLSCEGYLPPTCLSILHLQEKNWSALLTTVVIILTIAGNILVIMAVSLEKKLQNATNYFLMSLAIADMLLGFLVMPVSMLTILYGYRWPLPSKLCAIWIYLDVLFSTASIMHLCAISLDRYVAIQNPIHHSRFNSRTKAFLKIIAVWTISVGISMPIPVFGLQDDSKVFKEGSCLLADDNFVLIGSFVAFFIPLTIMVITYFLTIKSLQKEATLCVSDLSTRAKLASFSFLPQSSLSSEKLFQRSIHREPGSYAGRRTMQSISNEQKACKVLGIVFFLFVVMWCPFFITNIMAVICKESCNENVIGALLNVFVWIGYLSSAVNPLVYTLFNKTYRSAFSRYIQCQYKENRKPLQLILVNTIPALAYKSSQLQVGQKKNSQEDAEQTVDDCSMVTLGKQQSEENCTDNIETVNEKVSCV
- method: Blocking 5-HT2A receptor-mediated contractions of rat tail artery
- Type: functional, tissue-based
- assayContext: read-out: pA2 (converted)
testReadout: Kb (nM)
Response body: numeric value in nM, unit text excluded.

The cases that follow already have their Kb on record.
- smilesData: "CC(C)n1cc2c3c(cccc31)[C@H]1C[C@@H](COC(=O)C3CCCC3)CN(C)[C@@H]1C2.O=C(O)/C=C\\C(=O)O"
  testedOn: "5-hydroxytryptamine receptor 2A (Rattus norvegicus, UniProt P14842)"
  reportedResult: 22.4
- smilesData: "CC(C)n1cc2c3c(cccc31)[C@H]1C=C(COC(=O)C3CCC3)CN(C)[C@@H]1C2.O=C(O)/C=C\\C(=O)O"
  testedOn: "5-hydroxytryptamine receptor 2A (Rattus norvegicus, UniProt P14842)"
  reportedResult: 9.33
- smilesData: "CC(C)n1cc2c3c(cccc31)C1=C[C@@H](CO)CN(C)[C@@H]1C2.O=C(O)/C=C\\C(=O)O"
  testedOn: "5-hydroxytryptamine receptor 2A (Rattus norvegicus, UniProt P14842)"
  reportedResult: 0.708

Summary for this compound, CC(C)n1cc2c3c(cccc31)[C@H]1C=C(COC(=O)C3CCCC3)CN(C)[C@@H]1C2.O=C(O)/C=C\C(=O)O : Kb is 8.91

Summary for this compound, CC(C)n1cc2c3c(cccc31)[C@H]1C=C(COC(=O)C3CCCCC3)CN(C)[C@@H]1C2.O=C(O)/C=C\C(=O)O : Kb is 15.8

Summary for this compound, CN1CC(COC(=O)C2CCCCCC2)=C[C@@H]2c3cccc4[nH]cc(c34)C[C@H]21.O=C(O)/C=C\C(=O)O : Kb is 10.7

Summary for this compound, CN1CC(COC(=O)C2CCC2)=C[C@@H]2c3cccc4[nH]cc(c34)C[C@H]21.O=C(O)/C=C\C(=O)O : Kb is 77.6

Summary for this compound, CO[C@H]1CC[C@H](C(=O)OCC2=C[C@@H]3c4cccc5c4c(cn5C(C)C)C[C@H]3N(C)C2)CC1.O=C(O)/C=C\C(=O)O : Kb is 7.41

Summary for this compound, CC(C)n1cc2c3c(cccc31)[C@H]1C[C@@H](COC(=O)C3CCCCC3)CN(C)[C@@H]1C2.O=C(O)/C=C\C(=O)O : Kb is 72.4

Summary for this compound, CC(C)n1cc2c3c(cccc31)[C@H]1C[C@@H](COC(=O)C3CCC3)CN(C)[C@@H]1C2.O=C(O)/C=C\C(=O)O : Kb is 8.71

Summary for this compound, CC(C)n1cc2c3c(cccc31)[C@H]1C=C(COC(=O)C3CCCCCC3)CN(C)[C@@H]1C2.O=C(O)/C=C\C(=O)O : Kb is 17

====

# Kb listing for each entry below
- testedOn: 5-hydroxytryptamine receptor 2A (Rattus norvegicus)
- method: Blocking 5-HT2A receptor-mediated contractions of rat tail artery
- Format: functional, tissue-based
- assayContext: read-out: pA2 (converted)
Response body: numeric value in nM, unit text excluded.

The cases that follow already have their Kb on record.
- smilesData: "CC(C)n1cc2c3c(cccc31)C1=C[C@@H](COC(=O)C3CC3)CN(C)[C@@H]1C2.O=C(O)/C=C\\C(=O)O"
  testedOn: "5-hydroxytryptamine receptor 2A (Rattus norvegicus)"
  testReadout: "Kb"
  reportedResult: 1.82
- smilesData: "CC(C)n1cc2c3c(cccc31)C1=C[C@@H](COC(=O)C3CCC3)CN(C)[C@@H]1C2.O=C(O)/C=C\\C(=O)O"
  testedOn: "5-hydroxytryptamine receptor 2A (Rattus norvegicus)"
  testReadout: "Kb"
  reportedResult: 6.03
- smilesData: "CN1CC(COC(=O)C2CCCCC2)=C[C@@H]2c3cccc4[nH]cc(c34)C[C@H]21.O=C(O)/C=C\\C(=O)O"
  testedOn: "5-hydroxytryptamine receptor 2A (Rattus norvegicus)"
  testReadout: "Kb"
  reportedResult: 39.8

The reported Kb value, 5-hydroxytryptamine receptor 2A (Rattus norvegicus), for CC(C)n1cc2c3c(cccc31)[C@H]1C[C@@H](C)CN(C)[C@@H]1C2.O=C(O)/C=C\C(=O)O reads 3.16

The reported Kb value, 5-hydroxytryptamine receptor 2A (Rattus norvegicus), for CC(C)n1cc2c3c(cccc31)[C@H]1C[C@@H](COC(=O)C3CCCCCC3)CN(C)[C@@H]1C2.O=C(O)/C=C\C(=O)O reads 89.1

The reported Kb value, 5-hydroxytryptamine receptor 2A (Rattus norvegicus), for CC1=C[C@@H]2c3cccc4c3c(cn4C(C)C)C[C@H]2N(C)C1.O=C(O)/C=C\C(=O)O reads 1.45

The reported Kb value, 5-hydroxytryptamine receptor 2A (Rattus norvegicus), for CC(C)n1cc2c3c(cccc31)C1=C[C@@H](COC(=O)C3CCCCC3)CN(C)[C@@H]1C2.O=C(O)/C=C\C(=O)O reads 12
